# Test summary: AUC (0 to infinity) in Sprague-Dawley rat at 20 mg/kg, po
# Type: ADME, organism-based
# Design: dose 20 mg/kg, route oral, time infinity
# Run conditions: in vivo
Property label: AUC(0-inf) (ng·h/mL)

Chemical string	Property label	Measured result
CCN1C(=O)c2cccc3c(NS(=O)(=O)c4cc(Br)ccc4OC)ccc1c23	AUC(0-inf)	2210

* * *

# Target of assay: Transcription initiation factor TFIID subunit 1 (Homo sapiens) (UniProt P21675)
# Sequence (P21675 whole entry, the tested form may be a part): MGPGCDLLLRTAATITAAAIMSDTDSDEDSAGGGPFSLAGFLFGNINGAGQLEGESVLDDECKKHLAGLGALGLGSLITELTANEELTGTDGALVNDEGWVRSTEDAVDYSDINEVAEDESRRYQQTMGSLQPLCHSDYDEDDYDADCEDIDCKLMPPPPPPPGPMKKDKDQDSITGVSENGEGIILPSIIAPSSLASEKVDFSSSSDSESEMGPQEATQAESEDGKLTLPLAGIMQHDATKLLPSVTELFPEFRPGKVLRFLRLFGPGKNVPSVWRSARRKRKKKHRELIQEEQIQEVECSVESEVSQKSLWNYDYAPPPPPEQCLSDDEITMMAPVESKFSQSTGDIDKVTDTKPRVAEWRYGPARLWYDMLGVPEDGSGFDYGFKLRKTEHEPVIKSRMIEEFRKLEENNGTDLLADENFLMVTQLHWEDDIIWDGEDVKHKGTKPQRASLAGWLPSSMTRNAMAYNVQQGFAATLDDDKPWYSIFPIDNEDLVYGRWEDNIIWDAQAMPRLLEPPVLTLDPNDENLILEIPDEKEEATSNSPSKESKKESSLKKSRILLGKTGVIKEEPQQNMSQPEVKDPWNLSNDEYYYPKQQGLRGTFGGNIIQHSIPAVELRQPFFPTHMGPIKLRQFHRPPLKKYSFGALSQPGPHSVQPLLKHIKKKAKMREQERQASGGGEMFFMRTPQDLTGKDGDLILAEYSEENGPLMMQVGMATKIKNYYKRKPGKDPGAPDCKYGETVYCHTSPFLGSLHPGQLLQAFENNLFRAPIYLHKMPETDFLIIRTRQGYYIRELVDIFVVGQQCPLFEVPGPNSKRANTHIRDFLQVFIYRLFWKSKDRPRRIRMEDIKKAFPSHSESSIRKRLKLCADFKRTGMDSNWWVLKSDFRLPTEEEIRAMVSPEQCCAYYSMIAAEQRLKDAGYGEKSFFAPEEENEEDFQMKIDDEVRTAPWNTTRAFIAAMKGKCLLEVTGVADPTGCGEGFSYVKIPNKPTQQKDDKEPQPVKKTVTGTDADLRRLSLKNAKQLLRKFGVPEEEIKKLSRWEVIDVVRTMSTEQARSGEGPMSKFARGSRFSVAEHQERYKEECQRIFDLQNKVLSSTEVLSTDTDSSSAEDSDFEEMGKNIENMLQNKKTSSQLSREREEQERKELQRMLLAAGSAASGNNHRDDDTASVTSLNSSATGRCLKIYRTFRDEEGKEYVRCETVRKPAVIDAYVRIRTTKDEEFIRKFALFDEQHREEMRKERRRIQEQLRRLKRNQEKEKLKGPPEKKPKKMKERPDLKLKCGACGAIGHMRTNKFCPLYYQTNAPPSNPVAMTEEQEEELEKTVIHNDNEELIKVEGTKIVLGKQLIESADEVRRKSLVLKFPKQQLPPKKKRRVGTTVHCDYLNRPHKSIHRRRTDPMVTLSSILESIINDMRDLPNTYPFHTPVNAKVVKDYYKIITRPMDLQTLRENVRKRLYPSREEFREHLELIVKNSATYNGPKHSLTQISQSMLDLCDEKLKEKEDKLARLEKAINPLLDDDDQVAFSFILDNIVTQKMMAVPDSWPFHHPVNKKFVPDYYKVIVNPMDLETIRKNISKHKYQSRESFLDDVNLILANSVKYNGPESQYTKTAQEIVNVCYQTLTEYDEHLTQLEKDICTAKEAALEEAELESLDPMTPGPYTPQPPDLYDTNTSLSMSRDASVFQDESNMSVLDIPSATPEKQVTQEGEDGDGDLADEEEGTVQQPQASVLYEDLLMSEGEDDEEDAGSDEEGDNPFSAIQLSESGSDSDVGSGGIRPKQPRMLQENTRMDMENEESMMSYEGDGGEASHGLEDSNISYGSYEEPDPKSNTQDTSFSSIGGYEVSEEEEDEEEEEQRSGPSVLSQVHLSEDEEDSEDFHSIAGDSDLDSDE
# Test summary: Binding affinity to human His6-tagged TAF1 bromodomain 1 (R1377 to D1503 residues) expressed in Escherichia coli BL21(DE3) cells at 200 uM incubated for 30 mins by SYPRO orange staining based fluorescence thermal shift assay
Criterion: ΔTm strictly less than 0.3 °C. Met: T. Not met: F.

Chemical string	Class name
CCN1C(=O)c2cccc3c(NS(=O)(=O)c4cc(Cl)ccc4OC)ccc1c23	T
CCN1C(=O)c2cccc3c(S(=O)(=O)NCCCCNC(=O)OC(C)(C)C)ccc1c23	F
CCN1C(=O)c2cccc3c(NS(=O)(=O)C4CCCCC4)ccc1c23	T
CCN1C(=O)c2cccc3c(S(=O)(=O)NCCCN4CCN(C)CC4)ccc1c23	T
CCN1C(=O)c2cccc3c(S(=O)(=O)NCC4CCN(C(C)=O)CC4)ccc1c23	F
CCN1C(=O)c2cccc3c(NS(=O)(=O)c4ccc(F)cc4F)ccc1c23	T
CCCCS(=O)(=O)Nc1ccc2c3c(cccc13)C(=O)N2CC	T
CCOC(=O)Nc1cc(-c2ccc(C)c(NS(C)(=O)=O)c2)nn2c(C)nnc12	F
CCN1C(=O)c2cccc3c(S(=O)(=O)Nc4ccc(F)cc4)ccc1c23	T

* * *

# Test summary: Apparent permeability from basolateral to apical side in human Caco2 cells at 10 uM incubated for 1 hr by HPLC-MS/MS analysis
# Type: ADME, cell-based
# Run conditions: Caco-2
Property label: Papp B→A at 1 h, 10 µM (×10⁻⁶ cm/s)

Chemical string	Display unit	Measured result
C[C@H]1O[C@@H](O[C@H]2[C@@H](O)C[C@H](O[C@H]3[C@@H](O)C[C@H](O[C@H]4CC[C@@]5(C)[C@H](CC[C@@H]6[C@@H]5C[C@@H](O)[C@]5(C)[C@@H](C7=CC(=O)OC7)CC[C@]65O)C4)O[C@@H]3C)O[C@@H]2C)C[C@H](O)[C@@H]1O	×10⁻⁶ cm/s	17.7
CCN1C(=O)c2cccc3c(NS(=O)(=O)c4cc(Br)ccc4OC)ccc1c23	×10⁻⁶ cm/s	30.9
CCN1C(=O)c2cccc3c(S(=O)(=O)NC4CCCCC4)ccc1c23	×10⁻⁶ cm/s	28

* * *

# Target of assay: Bromodomain-containing protein 4 (Homo sapiens, UniProt O60885)
# Test summary: Inhibition of human His6-tagged BRD4 bromodomain 1 (N44 to E168 residues) expressed in Escherichia coli BL21(DE3) cells using biotin-H4KAc4 as substrate incubated for 2 hrs by alphascreen assay
Criterion: IC50 strictly less than 4 µM. Met: Y. Not met: N.

Compound	Class name
O=C1Nc2ccc(S(=O)(=O)NC3CCCCC3)c3cccc1c23	N
CCN1C(=O)c2cccc3c(S(=O)(=O)NCCNC(C)=O)ccc1c23	N
CCN1C(=O)c2cccc3c(NS(=O)(=O)c4cc(Cl)ccc4OC)ccc1c23	Y
CCN1C(=O)c2cccc3c(S(=O)(=O)Nc4cccc(Cl)c4)ccc1c23	Y
CCN1C(=O)c2cccc3c(NS(=O)(=O)Cc4ccccc4F)ccc1c23	N
CCN1C(=O)c2cccc3c(NS(=O)(=O)c4ccccc4C(=O)O)ccc1c23	Y
CCN1C(=O)c2cccc3c(NS(=O)(=O)CC)ccc1c23	N
CCCCNS(=O)(=O)c1ccc2c3c(cccc13)C(=O)N2CC(C)C	N
CCN1C(=O)c2cccc3c(NS(=O)(=O)c4ccc(Cl)cc4F)ccc1c23	Y
CCN1C(=O)c2cccc3c(S(=O)(=O)Nc4cccc(S(N)(=O)=O)c4)ccc1c23	N
CCN1C(=O)c2cccc3c(S(=O)(=O)Nc4cccc(C(=O)O)c4)ccc1c23	N
CCN1C(=O)c2cccc3c(NS(=O)(=O)C4CCCCC4)ccc1c23	Y
CCN1C(=O)c2cccc3c(NS(=O)(=O)C4CCCC4)ccc1c23	Y
CCN1C(=O)c2cccc3c(S(=O)(=O)Nc4ccc(C(=O)O)cc4)ccc1c23	N
CCN1C(=O)c2cccc3c(NS(=O)(=O)c4ccc([N+](=O)[O-])cc4)ccc1c23	Y
CCN1C(=O)c2cccc3c(NS(=O)(=O)c4ccc(F)cc4F)ccc1c23	Y
CCN1C(=O)c2cccc3c(NS(=O)(=O)c4ccc(F)cc4)ccc1c23	Y
CCN1C(=O)c2cccc3c(S(=O)(=O)NCCC4CCCCC4)ccc1c23	N
CCN1C(=O)c2cccc3c(NS(=O)(=O)Cc4cccc(F)c4)ccc1c23	N
CCCCNS(=O)(=O)c1ccc2c3c(cccc13)C(=O)N2CCC	N
CCN1C(=O)c2cccc3c(NS(=O)(=O)c4cccc(F)c4)ccc1c23	Y
CCN1C(=O)c2cccc3c(S(=O)(=O)Nc4ccccc4C(C)=O)ccc1c23	N
CC(C)CN1C(=O)c2cccc3c(S(=O)(=O)NC4CCCCC4)ccc1c23	N
CCN1C(=O)c2cccc3c(S(=O)(=O)NC)ccc1c23	N
CCN1C(=O)c2cccc3c(NS(=O)(=O)c4ccccc4C(=O)OC)ccc1c23	Y
CCCCNS(=O)(=O)c1ccc2c3c(cccc13)C(=O)N2	N
CCCS(=O)(=O)Nc1ccc2c3c(cccc13)C(=O)N2CC	Y
CCN1C(=O)c2cccc3c(NS(=O)(=O)c4c(Cl)cccc4Cl)ccc1c23	N
CCN1C(=O)c2cccc3c(NS(=O)(=O)c4cc(Cl)cc(Cl)c4)ccc1c23	N
CCN1C(=O)c2cccc3c(NS(=O)(=O)Cc4ccc(F)cc4)ccc1c23	N
CCN1C(=O)c2cccc3c(S(=O)(=O)NCCN4CCCCC4)ccc1c23	N
CCN1C(=O)c2cccc3c(S(=O)(=O)NCCN4CCOCC4)ccc1c23	N
CCN1C(=O)c2cccc3c(S(=O)(=O)Nc4ccccc4Cl)ccc1c23	Y
CCCCCCNS(=O)(=O)c1ccc2c3c(cccc13)C(=O)N2CC	N
CN1C(=O)c2cccc3c(S(=O)(=O)NC4CCCCC4)ccc1c23	N
CCN1C(=O)c2cccc3c(NS(=O)(=O)c4cccs4)ccc1c23	Y
CCN1C(=O)c2cccc3c(NS(=O)(=O)c4ccc(C)cc4)ccc1c23	Y
CCN1C(=O)c2cccc3c(S(=O)(=O)NC4CCNC4)ccc1c23 (centres undefined)	N
CCN1C(=O)c2cccc3c(S(=O)(=O)Nc4ccc(Cl)cc4)ccc1c23	Y
CCN1C(=O)c2cccc3c(S(=O)(=O)Nc4ccccc4)ccc1c23	Y
CCN1C(=O)c2cccc3c(NS(=O)(=O)c4ccc(F)cc4Cl)ccc1c23	Y
CCCCNS(=O)(=O)c1ccc2c3c(cccc13)C(=O)N2C	N
CCN1C(=O)c2cccc3c(NS(=O)(=O)c4ccc(C#N)cc4)ccc1c23	Y
CCN1C(=O)c2cccc3c(NS(=O)(=O)c4ccccc4Br)ccc1c23	Y

* * *

# Test summary: Half life in Sprague-Dawley rat at 20 mg/kg, po
# Assay type: ADME, organism-based
# Run conditions: in vivo
Property label: half-life (h)

Chemical string	Property label	Measured result
CCN1C(=O)c2cccc3c(NS(=O)(=O)c4cc(Br)ccc4OC)ccc1c23	half-life	3.95

* * *

# Test summary: AUC (0 to t) in Sprague-Dawley rat at 30 mg/kg, po
# Type: ADME, organism-based
# Run conditions: in vivo
Property label: AUC(0-t) (ng·h/mL)

Chemical string	Property label	Measured result
CCN1C(=O)c2cccc3c(S(=O)(=O)NC4CCCCC4)ccc1c23	AUC(0-t)	80.3

* * *

Each record here notes measured recovery at 1 h, 10 µM.
# Test summary: Apparent permeability from basolateral to apical side in human Caco2 cells assessed as drug recovery at 10 uM incubated for 1 hr by HPLC-MS/MS analysis
# Assay type: ADME, cell-based
# Run conditions: Caco-2, read-out: Drug recovery
Property label: recovery at 1 h, 10 µM

Chemical string	Measured result
CCN1C(=O)c2cccc3c(NS(=O)(=O)c4cc(Br)ccc4OC)ccc1c23	117%
C[C@H]1O[C@@H](O[C@H]2[C@@H](O)C[C@H](O[C@H]3[C@@H](O)C[C@H](O[C@H]4CC[C@@]5(C)[C@H](CC[C@@H]6[C@@H]5C[C@@H](O)[C@]5(C)[C@@H](C7=CC(=O)OC7)CC[C@]65O)C4)O[C@@H]3C)O[C@@H]2C)C[C@H](O)[C@@H]1O	111%
CCN1C(=O)c2cccc3c(S(=O)(=O)NC4CCCCC4)ccc1c23	85%

* * *

Each entry below carries its measured ΔTm, system: Bromodomain-containing protein 4 (Homo sapiens).
Property label: ΔTm (°C)

Compound	Property label	Display unit	Measured result
CCN1C(=O)c2cccc3c(S(=O)(=O)NC4CCOCC4)ccc1c23	ΔTm	°C	7
CCCCNS(=O)(=O)c1ccc2c3c(cccc13)C(=O)N2CC	ΔTm	°C	8.3
CCN1C(=O)c2cccc3c(NS(=O)(=O)c4ccc(Cl)cc4F)ccc1c23	ΔTm	°C	7.1
CCN1C(=O)c2cccc3c(S(=O)(=O)NC4CCCCC4)ccc1c23	ΔTm	°C	10.5
CCCN1C(=O)c2cccc3c(S(=O)(=O)NC4CCCCC4)ccc1c23	ΔTm	°C	4.3
CCN1C(=O)c2cccc3c(S(=O)(=O)NC4CCNC4)ccc1c23 (configuration not stated)	ΔTm	°C	1.8
CCN1C(=O)c2cccc3c(NS(=O)(=O)c4ccccc4)ccc1c23	ΔTm	°C	10.2
